Provenance of the data: the RNAGym collection of RNA variant scans (doi:10.1021/acssynbio.7b00057)

B1: Pistol ribozyme (parent)
chain: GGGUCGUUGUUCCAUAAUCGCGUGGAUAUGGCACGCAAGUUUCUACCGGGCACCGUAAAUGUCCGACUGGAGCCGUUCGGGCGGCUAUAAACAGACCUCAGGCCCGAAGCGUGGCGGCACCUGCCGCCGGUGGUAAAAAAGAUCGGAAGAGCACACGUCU

variants of: B1; assay: aptazyme ON/OFF ratio, guanine; higher = stronger switching; co-transcriptional cleavage with and without guanine
I'd be grateful if you could share measured aptazyme ON/OFF ratio for these entries.
Output spec: single numeric token, no unit.

INPUT: What aptazyme ON/OFF ratio value was documented for this variant, U10G U11G ?
OUTPUT: 1.22

INPUT: Name the recorded aptazyme ON/OFF ratio for U7C U8C G9U U10A U11C C12A .
OUTPUT: 1.19

INPUT: Reported aptazyme ON/OFF ratio, variant U8A U10G U11G C13A : ____
OUTPUT: 1.33

INPUT: Fill blank: measured aptazyme ON/OFF ratio of the variant U7G U8C G9U U10C U11G C12A is ____.
OUTPUT: 1.75

INPUT: Look up aptazyme ON/OFF ratio: G9A C12G C13U
OUTPUT: 1.44

INPUT: For the variant U7G U8A G9A U10C U11C C12U , what aptazyme ON/OFF ratio is on record?
OUTPUT: 1.06

INPUT: Data request, read-out aptazyme ON/OFF ratio, for U7G U8G G9C U10G U11A C13G
OUTPUT: 1.05

INPUT: Look up aptazyme ON/OFF ratio for this variant: U7G G9A U10C U11G C13G
OUTPUT: 1.17

INPUT: # input variant: U7G U8C U11A C12U C13U ; wanted: its aptazyme ON/OFF ratio
OUTPUT: 1.21

INPUT: Find the recorded aptazyme ON/OFF ratio belonging to U7G U8A G9U U11A C12G C13G and report it.
OUTPUT: 1.06

INPUT: Value lookup for aptazyme ON/OFF ratio; key = U8G G9A U10C U11A C12A C13G
OUTPUT: 1.11

INPUT: Which value of aptazyme ON/OFF ratio has been reported for U7G U8G G9U U10A C12U in the records?
OUTPUT: 1.29

INPUT: Give its aptazyme ON/OFF ratio value. Item: U7G U8C U10A U11G C12U
OUTPUT: 1.22

INPUT: For the variant shown here, U7C G9U U10G U11C C12A C13G , give the reported aptazyme ON/OFF ratio.
OUTPUT: 1.17

INPUT: Given the entry U7C G9A U10C U11G C13A , report its measured aptazyme ON/OFF ratio.
OUTPUT: 1.19

INPUT: Request the reported aptazyme ON/OFF ratio associated with U8A G9C C12U C13G
OUTPUT: 1.15

INPUT: Which aptazyme ON/OFF ratio is listed for U8G G9C U10G C13U ?
OUTPUT: 1.24

INPUT: Look up aptazyme ON/OFF ratio: G9U U10C C12A C13A
OUTPUT: 1.39

INPUT: Entry U7G G9U U10G C12G C13U : reported aptazyme ON/OFF ratio = ?
OUTPUT: 1.4

INPUT: Return reported aptazyme ON/OFF ratio; argument: U7A U8G G9A U10A C12G C13U
OUTPUT: 1.34

INPUT: Give the measured aptazyme ON/OFF ratio of U8C U10A U11G .
OUTPUT: 1.29

INPUT: Name the recorded aptazyme ON/OFF ratio for U8C G9U U10G U11A .
OUTPUT: 1.13

INPUT: What value of aptazyme ON/OFF ratio has been recorded for this entry: U7C U8A G9U U10G U11A C12A C13G
OUTPUT: 1.09

INPUT: // lookup aptazyme ON/OFF ratio for U7A U8A G9U U10C U11A C12U C13G
OUTPUT: 1.18

INPUT: So what does the record say about aptazyme ON/OFF ratio for U7A U8G U11C C12G C13U ?
OUTPUT: 1.2

INPUT: Can you look up the measured aptazyme ON/OFF ratio of U7G G9C U11A C12A for me?
OUTPUT: 1.94

INPUT: Would you kindly share the measured aptazyme ON/OFF ratio for U7G U8G G9C U10C C12G C13A ?
OUTPUT: 1.22

INPUT: aptazyme ON/OFF ratio lookup needed for U7G U8G U10C C13U , thanks.
OUTPUT: 1.81

INPUT: GET /values?readout=aptazyme ON/OFF ratio&item= U8G G9U U11C C13G
OUTPUT: 1.03

INPUT: Consider the variant shown here: U7C U8A G9U U10G C12G C13A What is its recorded aptazyme ON/OFF ratio?
OUTPUT: 1.12

INPUT: Can you look up the measured aptazyme ON/OFF ratio of U7G U8A G9U U11G C12A C13A for me?
OUTPUT: 1.09

INPUT: // aptazyme ON/OFF ratio lookup, key: U7G U8G G9C U10A U11G C12G
OUTPUT: 1.08

INPUT: Fill blank: measured aptazyme ON/OFF ratio of the variant U7G U8A G9A U10A C13G is ____.
OUTPUT: 1.1

INPUT: aptazyme ON/OFF ratio lookup needed for U7A U8A G9A U10G U11G C12G C13G , thanks.
OUTPUT: 1.55

INPUT: I'd like to know its aptazyme ON/OFF ratio. The variant in question is U7G U8C G9A U10C C12G C13A
OUTPUT: 1.12

INPUT: Reported aptazyme ON/OFF ratio for U7C U8A U10G U11C C12A : what is it?
OUTPUT: 1.62

INPUT: Dear colleague, I am looking for the recorded aptazyme ON/OFF ratio of the following variant: U7G U8G G9A C12U
OUTPUT: 1.68

INPUT: May I ask what aptazyme ON/OFF ratio has been recorded for U7G G9C U10C U11C C13U ?
OUTPUT: 1.03

INPUT: Which aptazyme ON/OFF ratio value belongs to U7A G9C U10A U11C C12A C13A ?
OUTPUT: 1.06

INPUT: Returns the measured aptazyme ON/OFF ratio for the input variant. Input: U7G G9U U10C C12A C13U
OUTPUT: 1.35

INPUT: Recorded aptazyme ON/OFF ratio for U7G U8C G9A U10A U11G C13G , please?
OUTPUT: 1.04

INPUT: Quick one: aptazyme ON/OFF ratio for U8G G9U U10A U11C C12U ?
OUTPUT: 1.05

INPUT: Any idea what aptazyme ON/OFF ratio was measured for U7C U8G G9U C12G C13A ?
OUTPUT: 1.17

INPUT: Given the entry U7C U10C U11A C12A C13U , report its measured aptazyme ON/OFF ratio.
OUTPUT: 1.3

INPUT: Consider the variant shown here: U7G U8C G9U U10A U11G C13A What is its recorded aptazyme ON/OFF ratio?
OUTPUT: 1.14

INPUT: # query: aptazyme ON/OFF ratio of entry U7A U8C U11A C13G
OUTPUT: 1.13

INPUT: Return reported aptazyme ON/OFF ratio; argument: U8G G9A U10G C13A
OUTPUT: 0.997

INPUT: I am curious: what aptazyme ON/OFF ratio value has been reported for U8G G9U U10A C13G ?
OUTPUT: 1.06

INPUT: Suppose we examine the variant U7G U8C G9U U10G C12G C13U ; what aptazyme ON/OFF ratio value has been reported?
OUTPUT: 1.23

INPUT: Which measured aptazyme ON/OFF ratio value corresponds to U7A U8C G9C U11G C12G C13A ?
OUTPUT: 1.12

INPUT: Any idea what aptazyme ON/OFF ratio was measured for U7G U8C U10G ?
OUTPUT: 1.31

INPUT: // aptazyme ON/OFF ratio lookup, key: U7C U8C U10C U11A C12A C13A
OUTPUT: 1.33

INPUT: What value of measured aptazyme ON/OFF ratio is listed for U7G U8G G9A U10A U11G C12G ?
OUTPUT: 1.43

INPUT: Reported aptazyme ON/OFF ratio for U7C U8A G9A U11C C12G C13G : what is it?
OUTPUT: 1.12

INPUT: Tell me the measured aptazyme ON/OFF ratio of U7A U8C U10A U11A C12U C13A , please.
OUTPUT: 1.18

INPUT: Entry U7A G9C U10G C13G : reported aptazyme ON/OFF ratio = ?
OUTPUT: 1.14

INPUT: Field request: aptazyme ON/OFF ratio | item: U7G U8G G9A U10G U11G C13G
OUTPUT: 1.41

INPUT: Quick check: aptazyme ON/OFF ratio of U7A U10A U11A C13G ?
OUTPUT: 1.15

INPUT: Recorded aptazyme ON/OFF ratio for U7C U8A G9U U10C U11A C12U C13A , please?
OUTPUT: 1.11

INPUT: Sample U7A U8A U10C U11G C12U C13G — what was its aptazyme ON/OFF ratio?
OUTPUT: 1.1

INPUT: aptazyme ON/OFF ratio lookup needed for U7C U8A G9A U10A U11C C12A , thanks.
OUTPUT: 1.16

INPUT: Which aptazyme ON/OFF ratio is reported for this variant? U8A G9C U11C C12U C13U
OUTPUT: 1.01

INPUT: Would you kindly share the measured aptazyme ON/OFF ratio for U7A U8G G9C U10C U11G C12G C13U ?
OUTPUT: 1.09

INPUT: I would be grateful if you could share the reported aptazyme ON/OFF ratio for U8G G9C U10A C12G .
OUTPUT: 1.1

INPUT: Name the reported aptazyme ON/OFF ratio value associated with the variant U8G G9U U10G U11A C13A
OUTPUT: 1.01

INPUT: Which aptazyme ON/OFF ratio value belongs to U7A U8C G9C U10A U11C ?
OUTPUT: 1.08

INPUT: What does the data say about its aptazyme ON/OFF ratio? Entry: U7G U8G G9U U11A
OUTPUT: 2.18

INPUT: I am curious: what aptazyme ON/OFF ratio value has been reported for U8C U10G U11A C13G ?
OUTPUT: 1.19

INPUT: Tell me the measured aptazyme ON/OFF ratio of U8G G9U U11A C12G C13A , please.
OUTPUT: 1.13

INPUT: Tell me the measured aptazyme ON/OFF ratio of U7A U8G G9U U10G C12U C13U , please.
OUTPUT: 1.21

INPUT: # lookup: aptazyme ON/OFF ratio of G9A U11A C13G
OUTPUT: 1.1

INPUT: # get_value(readout='aptazyme ON/OFF ratio', item= U7C U8G G9C U10C U11A C13G )
OUTPUT: 1.23

INPUT: Looking for the measured aptazyme ON/OFF ratio of U8C U10C C13U , can you help?
OUTPUT: 1.51

INPUT: Request the reported aptazyme ON/OFF ratio associated with U7G U8G G9C U10C C12A C13A
OUTPUT: 1.29

INPUT: I would be grateful if you could share the reported aptazyme ON/OFF ratio for U7A U8A G9C U10C U11C C13U .
OUTPUT: 1.04

INPUT: Could you tell me which aptazyme ON/OFF ratio is on file for U7G C12G C13U ?
OUTPUT: 1.17

INPUT: Please give the measured aptazyme ON/OFF ratio for this variant: U7G U8G U10A U11C C12G C13U
OUTPUT: 1.29

INPUT: Name the reported aptazyme ON/OFF ratio value associated with the variant U7G U8C G9U C13U
OUTPUT: 2.37

INPUT: Param item = U8G G9U U10C U11G C12U C13A ; retrieve measured aptazyme ON/OFF ratio.
OUTPUT: 1.09

INPUT: Which aptazyme ON/OFF ratio is reported for this variant? U8A U11G C12A C13U
OUTPUT: 1.2

INPUT: Return reported aptazyme ON/OFF ratio; argument: U10A U11G C12G C13U
OUTPUT: 1.43

INPUT: Which aptazyme ON/OFF ratio value belongs to U7C U8G G9C U10C C12A C13U ?
OUTPUT: 1.06

INPUT: Please look up its aptazyme ON/OFF ratio: U7G G9U U10C U11C C12U C13U
OUTPUT: 1.29

INPUT: Record request: aptazyme ON/OFF ratio value, item U7G U8A G9C U10A U11C C12G C13U
OUTPUT: 1.04

INPUT: Endpoint output: aptazyme ON/OFF ratio of U8C G9C U11C C13U . Value?
OUTPUT: 1.04

INPUT: # aptazyme ON/OFF ratio lookup, item U7C U8G G9C U10C U11A C12A
OUTPUT: 1.08

INPUT: Entry U7C G9C U10G U11C C12G : reported aptazyme ON/OFF ratio = ?
OUTPUT: 1.25

INPUT: I am curious: what aptazyme ON/OFF ratio value has been reported for U7G U10A U11G C12G ?
OUTPUT: 1.21

INPUT: I'd like to know its aptazyme ON/OFF ratio. The variant in question is G9A U10G U11C C12U C13G
OUTPUT: 1.22

INPUT: Report aptazyme ON/OFF ratio for U7C U8C G9C U10C please.
OUTPUT: 3.53

INPUT: Reported aptazyme ON/OFF ratio, variant U10C U11C C12U C13A : ____
OUTPUT: 1.07
